Data origin, for the record: PubChem BioAssay (NCI)

Quick reference: TGI of the listed items.
- Test system: NCI-H522 lung
- TEST PROTOCOL: NCI tumour cell line growth inhibition, 48 h

Please review the following examples before continuing.
COMPOUND	ATTRIBUTE MEASURED	VALUE MEASURED
CCOc1ccc(/C=C2\N=C(c3ccccc3)OC2=O)cc1	TGI	> 100 µM
O=P1(NCCCl)OCCCN1CCCl (stereo not drawn)	TGI	360 µM
Cn1ncnc1[C@@H]1c2n[nH]c(=O)c3cc(F)cc(c23)N[C@H]1c1ccc(F)cc1	TGI	> 100 µM
CCCc1nnc2sc(COc3ccc(OCc4nn5c(CCC)nnc5s4)c(Cl)c3)nn12	TGI	> 100 µM
NC(Cc1ccc(CP(=O)(O)O)cc1)C(=O)O (stereo not drawn)	TGI	> 100 µM

# query: TGI of entry CCCCCCCCCCCCCCCCOCC(COP(=O)(O)OCC1OC(n2cc(CC)c(=O)[nH]c2=O)CC1O)OC(=O)CCCCCCCCCCCCCCC (stereo not drawn)
> 100 µM

What does the record list as TGI for CC(C)(C)C(=O)/C=C(\OB(F)F)C(C)(C)C ?
> 100 µM

Name the recorded TGI for C=CC(=O)NCCC(=O)OCn1cc(F)c(=O)[nH]c1=O .
> 100 µM

Looking for the measured TGI of NS(=O)(=O)c1ccc(N(/C=C/C(=O)C(F)(F)F)CC(=O)c2ccc(F)cc2)cc1 , can you help?
51.5 µM

Need TGI of CC(=O)OCC1OC(N2C(=O)[C@@H](Oc3ccccc3)[C@H]2/C=C/c2ccccc2)C(OC(C)=O)C(OC(C)=O)C1OC(C)=O (stereo partly drawn) , thanks.
> 100 µM

Consider the compound shown here: CN1CCN(Cn2nc(COc3ccccc3Cl)n(/N=C/c3ccc(-c4ccc(Cl)cc4Cl)o3)c2=S)CC1 What is its recorded TGI?
56.1 µM

If you can, please state the reported TGI value of COCN1C(=O)[C@@H]2CCCN2C(=O)c2cc(OC)c(Cc3ccccc3)cc21 .
> 100 µM

Find the recorded TGI belonging to N#CCCNc1nonc1-c1nc2ccccc2n1CC(=O)c1ccc(N)cc1 and report it.
< 0.01 µM

Which TGI reading was recorded for the compound CC(C)=CC[C@@H]1CC2(CC=C(C)C)C(=O)C(OC3(C(=O)c4ccccc4)C(=O)C4(CC=C(C)C)C[C@@H](CC=C(C)C)C(C)(C)C(CC=C(C)C)(C4=O)C3=O)(C(=O)c3ccccc3)C(=O)C(CC=C(C)C)(C2=O)C1(C)C (stereo partly drawn) ?
3.72 µM

---

- System: SF-295 CNS
- TEST PROTOCOL: NCI tumour cell line growth inhibition, 48 h
Each entry below lists one item and its recorded TGI value.

Below, each entry is followed by its recorded TGI result.
COMPOUND	VALUE MEASURED
COc1cc([C@@H]2c3cc4c(cc3[C@H](OC3OC5COC(c6ccco6)OC5C(O)C3O)C3COC(=O)[C@@H]32)OCO4)cc(OC)c1OC (some centres undefined)	> 100 µM
N/N=c1/nc2n(c3ncccc13)C=CNN2	> 100 µM
CC(C)(CN1CCCCC1)C(=O)/C=C/c1ccccc1	35.1 µM

Please look at the following compound next.
TGI for COc1cccc2c1C(=O)c1c(O)c3c(c(O)c1C2=O)C[C@@](O)(C(=O)CO)CC3OC1CC(N(C)CCOCC(OC(C)=O)OC(C)=O)C(O)C(C)O1 (some centres undefined) ?
> 0.01 µM
